# Tested on: rodent lifetime carcinogenesis bioassay, tumor incidence TD50
# method: carcinogenic potency in animals, long-term in vivo studies, CPDB compilation (AID 1745844)
# particulars: rat; strain Fischer 344; females; in drinking water; site: pituitary gland; lesion: one or several types; types not named; dosed 106 weeks; study length 131 weeks
The source made the active and inactive calls. No rule for the calls is given here.
test readout: TD50

# input Which value of TD50 has been reported for Cc1[nH]cnc1CSCCN=C(NC#N)N(C)N=O in the records?
# output 3.6 mg/kg/day (inactive)

* * *

# Test system: rodent lifetime carcinogenesis bioassay, tumor incidence TD50
# method: carcinogenic potency in animals, long-term in vivo studies, CPDB compilation (AID 1745844)
# particulars: rat; strain Fischer 344; males; by gavage; site: all sites + liver; lesion: mononuclear-cell leukemia + hepatocellular adenoma; dosed 71 weeks; study length 71 weeks
test readout: TD50 (mg/kg/day)
Hi! Could you send only the number? It should be in mg/kg/day, unit omitted.

# input # get_value(readout= TD50, system= rodent lifetime carcinogenesis bioassay, tumor incidence TD50) for C=C1C/C(=C/C)C(=O)O[C@@H]2CCN3CC=C(COC(=O)[C@@]1(O)CO)[C@H]23
# output 0.179

* * *

# Tested on: rodent lifetime carcinogenesis bioassay, tumor incidence TD50
# method: carcinogenic potency in animals, long-term in vivo studies, CPDB compilation (AID 1745844)
# particulars: rat; strain Fischer 344; males; inhaled; site: nasal cavity; lesion: adenomatous polyp; dosed 52 weeks; study length 130 weeks
test readout: TD50

# input Identify the measured TD50 of NN for rodent lifetime carcinogenesis bioassay, tumor incidence TD50.
# output 0.194 mg/kg/day

* * *

# Test system: rodent lifetime carcinogenesis bioassay, tumor incidence TD50
# method: carcinogenic potency in animals, long-term in vivo studies, CPDB compilation (AID 1745844)
# particulars: rat; strain Fischer 344; males; inhaled; site: lung; lesion: bronchiolar adenoma; dosed 52 weeks; study length 130 weeks
test readout: TD50

# input Form field: reported TD50 of NN
# output 6.1 mg/kg/day

* * *

# Tested on: rodent lifetime carcinogenesis bioassay, tumor incidence TD50
# method: carcinogenic potency in animals, long-term in vivo studies, CPDB compilation (AID 1745844)
# particulars: mouse; strain B6C3F1; females; by gavage; site: liver; lesion: hepatocellular adenoma; dosed 102 weeks; study length 103 weeks
test readout: TD50 (mg/kg/day)
Please give a number only; it is taken to be in mg/kg/day.

# input For CC(C)=CCl , what is its reported TD50?
# output 150

* * *

# Tested on: rodent lifetime carcinogenesis bioassay, tumor incidence TD50
# method: carcinogenic potency in animals, long-term in vivo studies, CPDB compilation (AID 1745844)
# particulars: mouse; strain B6C3F1; males; inhaled; site: spleen; lesion: hemangiosarcoma; dosed 80 weeks; study length 96 weeks
test readout: TD50 (mg/kg/day)
State the answer as a number, implicitly in mg/kg/day.

# input Item C=CC(=C)C with rodent lifetime carcinogenesis bioassay, tumor incidence TD50 - TD50?
# output 25800

* * *

# System: rodent lifetime carcinogenesis bioassay, tumor incidence TD50
# method: carcinogenic potency in animals, long-term in vivo studies, CPDB compilation (AID 1745844)
# particulars: rat; strain Long-Evans BLU:(LE); both sexes; in drinking water; site: liver; lesion: one or several types; types not named; dosed 167 weeks; study length 167 weeks
Calls of active or inactive are those of the source. No rule for the calls is given here.
test readout: TD50

# input Entry O=[As]O : reported TD50 = ?
# output 10.6 mg/kg/day (inactive)

* * *

# Test system: rodent lifetime carcinogenesis bioassay, tumor incidence TD50
# method: carcinogenic potency in animals, long-term in vivo studies, CPDB compilation (AID 1745844)
# particulars: hamster; strain Syrian Golden; both sexes; by gavage; site: liver; lesion: cholangioma; dosed 53 weeks; study length 59 weeks
test readout: TD50 (mg/kg/day)
# output: bare number, implied unit mg/kg/day

# input Request the reported TD50 associated with C=CCN(CC=C)N=O
# output 743

* * *

# System: rodent lifetime carcinogenesis bioassay, tumor incidence TD50
# method: carcinogenic potency in animals, long-term in vivo studies, CPDB compilation (AID 1745844)
# particulars: rat; strain Fischer 344; males; by gavage; site: subcutaneous tissue; lesion: fibrosarcoma + fibrous histiocytoma + sarcoma; dosed 104 weeks; study length 104 weeks
Activity calls are given as the source filed them. How the calls were made is not given here.
test readout: TD50

# input Quick check: TD50 of C=C(C)C#N ?
# output 205 mg/kg/day (inactive)

* * *

# System: rodent lifetime carcinogenesis bioassay, tumor incidence TD50
# method: carcinogenic potency in animals, long-term in vivo studies, CPDB compilation (AID 1745844)
# particulars: rat; strain F344/DuCrj; males; in feed; site: urinary bladder; lesion: several types; types named in the paper; dosed 112 weeks; study length 112 weeks
test readout: TD50

# input Which TD50 is reported for this compound? Cc1nc(N)cc2[nH]c3ccccc3c12
# output 9.72 mg/kg/day

* * *

# Tested on: rodent lifetime carcinogenesis bioassay, tumor incidence TD50
# method: carcinogenic potency in animals, long-term in vivo studies, CPDB compilation (AID 1745844)
# particulars: mouse; strain B6C3F1; males; inhaled; site: lung; lesion: alveolar/bronchiolar carcinoma; dosed 80 weeks; study length 105 weeks
test readout: TD50

# input Which TD50 reading was recorded for the compound C=CC(=C)C ?
# output 6680 mg/kg/day

* * *

# System: rodent lifetime carcinogenesis bioassay, tumor incidence TD50
# method: carcinogenic potency in animals, long-term in vivo studies, CPDB compilation (AID 1745844)
# particulars: mouse; strain B6C3F1; males; in feed; site: liver; lesion: hepatocellular adenoma + hepatocellular carcinoma + neoplastic nodule; dosed 79 weeks; study length 93 weeks
test readout: TD50
Could you write the number and then its unit?

# input What TD50 value was documented for this compound, Nc1ccc2c(c1)C(=O)c1ccccc1C2=O ?
# output 798 mg/kg/day

* * *

# Tested on: rodent lifetime carcinogenesis bioassay, tumor incidence TD50
# method: carcinogenic potency in animals, long-term in vivo studies, CPDB compilation (AID 1745844)
# particulars: mouse; strain CD-1 HaM/ICR; males; in feed; site: lung; lesion: several types; types named in the paper; dosed 73 weeks; study length 94 weeks
The source made the active and inactive calls. No rule for the calls is given here.
test readout: TD50

# input Any idea what TD50 was measured for Nc1nc(N)nc(-c2ccccc2)n1 ?
# output 304 mg/kg/day (inactive)

* * *

# System: rodent lifetime carcinogenesis bioassay, tumor incidence TD50
# method: carcinogenic potency in animals, long-term in vivo studies, CPDB compilation (AID 1745844)
# particulars: rat; strain Fischer 344; males; in feed; site: liver; lesion: hepatocellular carcinoma; dosed 78 weeks; study length 105 weeks
test readout: TD50

# input Find TD50 (rodent lifetime carcinogenesis bioassay, tumor incidence TD50) for the entry [O-]/[N+](=N\O)c1ccccc1
# output 30.7 mg/kg/day

* * *

# Tested on: rodent lifetime carcinogenesis bioassay, tumor incidence TD50
# method: carcinogenic potency in animals, long-term in vivo studies, CPDB compilation (AID 1745844)
# particulars: rat; strain Sprague-Dawley; males; by gavage; site: forestomach; lesion: benign tumor; dosed 52 weeks; study length 156 weeks
test readout: TD50

# input What value of measured TD50 is listed for c1ccc(C2CO2)cc1 (stereo unspecified) ?
# output 354 mg/kg/day

* * *

# Test system: rodent lifetime carcinogenesis bioassay, tumor incidence TD50
# method: carcinogenic potency in animals, long-term in vivo studies, CPDB compilation (AID 1745844)
# particulars: rat; strain Fischer 344; males; in feed; site: testis; lesion: interstitial-cell tumor; dosed 89 weeks; study length 89 weeks
test readout: TD50
Express the reported value numerically, then name its unit.

# input State its TD50 on rodent lifetime carcinogenesis bioassay, tumor incidence TD50: S=C=NCCCc1ccccc1
# output 4.34 mg/kg/day

* * *

# System: rodent lifetime carcinogenesis bioassay, tumor incidence TD50
# method: carcinogenic potency in animals, long-term in vivo studies, CPDB compilation (AID 1745844)
# particulars: rat; strain Wistar; males; in feed; site: liver; lesion: hepatocellular carcinoma; dosed 52 weeks; study length 52 weeks
test readout: TD50 (mg/kg/day)
Enter your answer as a number in mg/kg/day; do not include the unit.

# input Bench note: what TD50 did O=P(O)(OCC(Br)CBr)OCC(Br)CBr (stereo unspecified) show?
# output 129

* * *

# Test system: rodent lifetime carcinogenesis bioassay, tumor incidence TD50
# method: carcinogenic potency in animals, long-term in vivo studies, CPDB compilation (AID 1745844)
# particulars: rat; strain Fischer 344; males; by gavage; site: liver; lesion: cholangiocarcinoma + hepatocellular carcinoma + neoplastic nodule; dosed 25 weeks; study length 118 weeks
test readout: TD50

# input What does the data say about its TD50? Entry: Brc1cc(Br)c(-c2cc(Br)c(Br)cc2Br)cc1Br
# output 0.148 mg/kg/day

* * *

# Test system: rodent lifetime carcinogenesis bioassay, tumor incidence TD50
# method: carcinogenic potency in animals, long-term in vivo studies, CPDB compilation (AID 1745844)
# particulars: mouse; strain B6C3F1; males; in feed; site: liver; lesion: hepatocellular adenoma + hepatocellular carcinoma + neoplastic nodule; dosed 103 weeks; study length 104 weeks
// reported TD50 per item
Express it in mg/kg/day; write the number only.

1) COc1ccc(N)c(OC)c1: 1390
2) Oc1ccc(Cl)cc1Cl: 458000

# input Which TD50 value is on record for NC(=O)NN=Cc1ccc([N+](=O)[O-])o1 ?
# output 152
